# credit: patent US10370333B2

pIC50: −log10 of the molar value.
Reported pIC50 for target or system TNAP (Homo sapiens (Human)), by entry.
readout.label: pIC50

[[record]]
compound = "COc1cc(Cl)c(Br)cc1S(=O)(=O)Nc1cccnc1"
result = "> 7.00"

[[record]]
compound = "COc1ccc(OC)c(S(=O)(=O)Nc2cncc(-c3cccs3)c2)c1"
result = "> 7.00"

[[record]]
compound = "O=C(O)c1cncc(NS(=O)(=O)c2cc(Br)ccc2OC(F)(F)F)c1"
result = "> 7.00"

[[record]]
compound = "COc1ccc(OC)c(S(=O)(=O)Nc2cncc(-c3ccc(C)cc3)c2)c1"
result = "6.00 to 7.00"

[[record]]
compound = "COc1ccc(Br)cc1S(=O)(=O)Nc1ccc(N)nc1"
result = "< 6.00"

[[record]]
compound = "O=S(=O)(Nc1cncc(-c2cncs2)c1)c1cc(Cl)ccc1OC(F)(F)F"
result = "6.00 to 7.00"

[[record]]
compound = "COc1ccc(Cl)cc1S(=O)(=O)Nc1cncc(-c2ccccc2C(F)(F)F)c1"
result = "6.00 to 7.00"

[[record]]
compound = "COc1ccc(S(=O)(=O)Nc2cnc3ccccc3c2)c(OC)c1"
result = "< 6.00"

[[record]]
compound = "COC(=O)c1cncc(NS(=O)(=O)c2cc(Br)ccc2OC)c1"
result = "> 7.00"

[[record]]
compound = "COc1ccc(OC)c(S(=O)(=O)Nc2cnc3ccc(C(=O)NC4CCCCC4)cc3c2)c1 [Example IX-14]"
result = "> 7.00"

[[record]]
compound = "COc1ccc(Cl)cc1S(=O)(=O)Nc1cncc(C(N)=O)c1"
result = "> 7.00"

[[record]]
compound = "COC(=O)c1cncc(NS(=O)(=O)c2cc(Br)ccc2OC(F)(F)F)c1"
result = "6.00 to 7.00"

